So I've got a bunch of compounds here, and I need their EC50 values.
# TARGET OF ASSAY: human TGR5 receptor (Homo sapiens, UniProt Q8TDU6)
# Sequence (Q8TDU6 whole entry): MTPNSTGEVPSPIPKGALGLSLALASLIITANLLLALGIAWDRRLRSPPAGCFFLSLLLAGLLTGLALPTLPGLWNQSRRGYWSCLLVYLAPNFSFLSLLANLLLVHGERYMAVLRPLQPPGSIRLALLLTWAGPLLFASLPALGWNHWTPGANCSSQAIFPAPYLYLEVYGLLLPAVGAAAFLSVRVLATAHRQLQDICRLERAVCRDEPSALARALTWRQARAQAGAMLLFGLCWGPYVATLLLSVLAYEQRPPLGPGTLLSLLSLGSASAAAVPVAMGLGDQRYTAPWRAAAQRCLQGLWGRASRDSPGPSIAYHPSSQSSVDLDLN
# METHOD NOTES: Human TGR5 cAMP production assay (hTGR5-CHO cells, DiscoveRx cAMP XS+ kit)
# SETUP CONDITIONS: luminescent cAMP assay, read-out: Human TGR5 Lum. cAMP Activity (EC50)

Record CN(C)CCN1CCN(c2cc(N3CCC[C@@H](C(=O)NCCc4ccc(C#N)cc4)C3)nc(C(F)(F)F)n2)CC1 [Compound 317] . Reported EC50: 100 to 999 nM

Consider "O=C(NCCc1ccc(C(F)(F)F)cc1)[C@@H]1CCCN(c2cc(OC3CCOCC3)nc(C(F)(F)F)n2)C1" . Its measured EC50 is 100 to 999 nM

Entry "N#Cc1ccc(CCNC(=O)[C@@H]2CCCN2c2cc(N3CCC(CCCC(=O)NCCS(=O)(=O)O)CC3)nc(C(F)(F)F)n2)cc1" — recorded EC50 = < 100 nM

Please fill in: EC50 reported for "O=C(CCCC1CCN(c2cc(N3CCC[C@H]3C(=O)NCCc3ccc(C(F)(F)F)cc3)nc(C(F)(F)F)n2)CC1)NCCCS(=O)(=O)O" = < 100 nM

Query "COC(=O)[C@H](CCC[N+](C)(C)C)NC(=O)CCCC1CCN(c2cc(N3CCC[C@H]3C(=O)NCCc3ccc(C#N)cc3)nc(C(F)(F)F)n2)CC1" yields EC50 of < 100 nM

The reported EC50 of the compound "N#Cc1ccc(CCNC(=O)[C@@H]2CCN2c2cc(N3CCC(CCN)CC3)nc(C(F)(F)F)n2)cc1" was < 100 nM

Measured EC50, "CN(CC1CCN(c2cc(N3CCC[C@H]3C(=O)NCCc3ccc(C#N)cc3)nc(C(F)(F)F)n2)CC1)C(=O)OC(C)(C)C" : 1000 to 30000 nM

According to the records, this compound "N#Cc1ccc(CCNC(=O)[C@@H]2CCCN2c2cc(N3CCC(OCC#CCS(=O)(=O)O)CC3)nc(C(F)(F)F)n2)cc1" displays EC50 of < 100 nM

Noted for "N#Cc1ccc(CCNC(=O)[C@@H]2CCN2c2cc(N3CCC(CCNC(=O)NCCNC(=N)N)CC3)nc(C(F)(F)F)n2)cc1" : its EC50 reads < 100 nM

Sure, the documented EC50 for "CCOC(=O)CCNC(=O)NCCC1CCN(c2cc(N3CCC[C@@H](C(=O)NCCc4ccc(C#N)cc4)C3)nc(C(F)(F)F)n2)CC1" is < 100 nM

// field: EC50; key: "N#Cc1ccc(CCNC(=O)[C@@H]2CCCN2c2cc(N3CCC(CCNC(=O)NCP(=O)(O)O)CC3)nc(C(F)(F)F)n2)cc1" ; value = < 100 nM

// sample "O=C(O)CCC1CCN(c2cc(N3CC[C@H]3C(=O)NCCc3ccc(C(F)(F)F)cc3)nc(C(F)(F)F)n2)CC1" , its EC50 was < 100 nM

Entry under test: "N#Cc1ccc(CCNC(=O)[C@@H]2CCCN2c2cc(OC3CCOCC3)nc(C(F)(F)F)n2)cc1" . Its EC50 was < 100 nM

Lab note: "N[C@@H](CS(=O)(=O)O)C(=O)NCCC1CCN(c2cc(N3CC[C@H]3C(=O)NCCc3ccc(C(F)(F)F)cc3)nc(C(F)(F)F)n2)CC1" gave EC50 of < 100 nM

Documented EC50 of "CNc1cc(N2CCC[C@@H](C(=O)NCCc3ccc(C(F)(F)F)cc3)C2)nc(C(F)(F)F)n1" : 100 to 999 nM

Entry under test: "N#Cc1ccc(CCNC(=O)[C@@H]2CCCN2c2cc(N3CCC(CCCC(=O)N[C@@H](CCCNC(=N)N)C(=O)O)CC3)cc(C(F)(F)F)n2)cc1" . Its EC50 was < 100 nM

EC50 in this record for "N#Cc1ccc(CCNC(=O)[C@@H]2CCCN2c2cc(N3CCC(CCNC(=O)NCCOCCOCCOCCC(=O)O)CC3)nc(C(F)(F)F)n2)cc1" : < 100 nM

response.value for N#Cc1ccc(CCNC(=O)C2CCN2c2cc(OC3CCOCC3)nc(C(F)(F)F)n2)cc1 (centres unmarked) (field: EC50) = 100 to 999 nM

Looking up "N#Cc1ccc(CCNC(=O)[C@@H]2CCCN2c2cc(-c3ccc(CNC(=O)NCCCS(=O)(=O)O)cc3)nc(C(F)(F)F)n2)cc1" , I found its EC50 recorded as 100 to 999 nM

response.value for "N#Cc1ccc(CCNC(=O)[C@@H]2CCCN2c2cc(-c3ccco3)nc(C(F)(F)F)n2)cc1" (field: EC50) = 1000 to 30000 nM

Notebook: "N#Cc1ccc(CCNC(=O)[C@@H]2CCCN2c2cc(OC3CCNCC3)nc(C(F)(F)F)n2)cc1" , EC50 read as 1000 to 30000 nM

Entry "O=C(NCCc1ccc(C(F)(F)F)cc1)[C@@H]1CCCN(c2cc(N3CCNCC3)nc(C(F)(F)F)n2)C1" — recorded EC50 = 1000 to 30000 nM

Documented EC50 of "N#CCCC1CCN(c2cc(N3CC[C@H]3C(=O)NCCc3ccc(C#N)cc3)nc(C(F)(F)F)n2)CC1" : < 100 nM

# EC50 (compound: "N#Cc1ccc(CCNC(=O)[C@@H]2CCCN2c2cc(N3CCC(CCCC(=O)NCS(=O)(=O)O)CC3)nc(C(F)(F)F)n2)cc1" ) is < 100 nM

Record "O=C(CCCC1CCN(c2cc(N3CCC[C@H]3C(=O)NCCc3cccc(-c4ccncc4)c3)nc(C(F)(F)F)n2)CC1)NCS(=O)(=O)O" , field EC50: 1000 to 30000 nM

Kindly note the recorded EC50 for "N=C(N)NCCS(=O)(=O)N1CCN(c2cc(N3CCC[C@@H](C(=O)NCCc4ccc(C(F)(F)F)cc4)C3)nc(C(F)(F)F)n2)CC1" , which is < 100 nM
